- Test system: OVCAR-3 ovarian
- Assay comment: NCI-60 one-dose screen, 48 h
- Test conditions: 10 µM unless noted
This is part of a sample that, as a whole, favours compounds with a hit. Of some 83,000 tested, about 20% had one in any assay. The source made the active and inactive calls. Rule for the calls: active = growth percent below 10; inactive = the rest.
Give one outcome, nothing more. List: active, inactive

# Compound, Class
measured = [
    ("Nc1cc(F)ccc1[N+](=O)[O-]", "inactive"),
]

Q. Each compound tested received a call. Report the one for `CC(=O)N(C(C)=O)c1ccc(C)cc1` .
A. inactive

Q. What outcome does the record of this test show for `C#CCSc1nnnn1-c1ccccc1` ?
A. inactive

Q. Kindly provide the recorded test outcome for the following compound: COC1C(=O)CCC2(CO2)C1(O)C1(C)OC1CCC(C)C (centres undefined)
A. inactive

Q. // param item: O=C(O)C1CCCN1C(=O)OCc1ccccc1 (centres undefined) ; yields the recorded call
A. inactive

Q. Dear all, I need the recorded test outcome for `Nc1nc2nnc(-c3ccccc3)c(-c3ccccc3)n2n1` , thank you.
A. inactive

* * *

- Test system: PC-3 prostate
- Assay comment: NCI-60 one-dose screen, 48 h (100 = growth as untreated, 0 = no growth, -100 = all killed)
- Test conditions: 10 µM unless noted
- Protocol: Growth inhibition of the PC-3 human tumor cell line is measured as a screen for anti-cancer activity. Cells are grown in 96 well plates and exposed to the test compound for 48 hours. Compounds are tested at a single concentration, which is 10^-5 M for most compounds. The reported endpoint is percent growth (GI% or GIPRCNT), where numbers from 0 - 100% represent growth inhibition, and numbers from -100% - 0 represent cell death. For example, a value of 40 represents 60% growth inhibition. […]
Compounds without any hit were thinned out: in the full panel of roughly 83,000, 20% have a hit.
Can you tell me growth for the items I'm about to list?
One number for each entry, in %.

# Compound, Readout units, growth
rows = [
    ("OCCOc1ccc(-c2cc(-c3ccccn3)nc(-c3ccccn3)c2)cc1", "%", 20.1),
    ("Cn1/c(=N\\N=C\\c2ccccc2OCCO)sc2ccccc21", "%", 76.5),
    ("C=C(c1ccc(N(C)C)cc1)c1ccc(N(C)C)cc1", "%", 25.7),
    ("CC(C)(C)NCCC(O)c1cc(C(F)(F)F)nc2c(C(F)(F)F)cccc12 (configuration not stated)", "%", 55.3),
    ("Cc1onc(-c2ccccc2Cl)c1C(=O)Cl", "%", 90.7),
]

Okay, here is my list. What is growth for each of these?
1. C=CC(C)C(C)(C)O (configuration not stated)
2. C=C1C(=O)C2CCN1CC2
3. O=C(O)c1ccc(OCc2ccccc2)cc1

A.
1. 100
2. 101
3. 90.4

State the recorded growth for every item in the following list.
1. Cc1[nH]n(-c2ccccc2)c(=O)c1C=NC(=S)C(N)=S
2. CC(=O)Oc1c(Cl)cccc1-c1ccccc1
3. NNC(=O)N/N=C1\C(=O)N(c2nccs2)C(=O)C(=O)C1c1nc2ccccc2s1 (configuration not stated)
4. O=C1CSc2ccccc2N1

A.
1. 85.8
2. 89.5
3. 82.6
4. 93.1

* * *

- Test system: UACC-62 melanoma
- Assay comment: NCI-60 one-dose screen, 48 h
- Test conditions: 10 µM unless noted
The panel holds about 83,000 compounds, 20% with a hit somewhere; the sample as a whole holds those more often. The source made the active and inactive calls. Rule for the calls: active = growth percent below 10; inactive = the rest.
Pick one and only one: active, inactive

# Compound, Class
rows = [
    ("CCOC(=O)c1cc(C)[nH]c(=O)c1C#N", "inactive"),
    ("CC(=O)NCNC(C)=O", "inactive"),
    ("Cc1ccc(C(C)C)c(OCC(=O)O)c1", "inactive"),
    ("O=[N+]([O-])c1ccc2[nH]c(=S)n(/C=C(/c3ccc(Cl)cc3Cl)S(=O)(=O)Cc3ccc(Cl)cc3Cl)c2c1", "inactive"),
]

Q. Assay outcome for `C#CCSc1nnnn1-c1ccccc1` : what was it?
A. inactive
